B1: CCDC6 (parent)
chain: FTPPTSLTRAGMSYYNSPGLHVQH

- Variants of: B1
- Protocol: protein stability index of a GFP-peptide fusion (GPS, HEK-293T) (PSI 1-6); higher = more stable;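 also: lentivirally expressed fusions sorted by FACS into six bins by GFP to DsRed ratio, PSI derived from sequencing read proportions per bin multiplied by bin number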
- Measurement Context: c terminus: a fixed tail appended
Measured Metric: protein stability index
Please give the numeric answer without any surrounding text.

Input line: Field request: protein stability index | item: FTPPTSLTRAGMSYCNSPGLHVQH [Y15C]
Output line: 1.99

Input line: Field request: protein stability index | item: FTPPTSLTRAGMSYYNSPGLRVQH [H21R]
Output line: 1.75

Input line: Field request: protein stability index | item: FTPPTSLTQAGMSYYNSPGLHVQH [R9Q]
Output line: 2.54

Input line: Field request: protein stability index | item: FTPPTLLTRAGMSYYNSPGLHVQH [S6L]
Output line: 2.45

Input line: Field request: protein stability index | item: FTPPTSLTRAGSSYYNSPGLHVQH [M12S]
Output line: 2

Input line: Field request: protein stability index | item: FTPPTSLTRAGMSYYNSPGLHVLH [Q23L]
Output line: 2

Input line: Field request: protein stability index | item: FTPPTSLTRAGMSYYNSGGLHVQH [P18G]
Output line: 2.05

Input line: Field request: protein stability index | item: FTPPTSLTRAGMSYYNSPGLHLQH [V22L]
Output line: 1.95

Input line: Field request: protein stability index | item: FTPPTSLTRAGMSYYNSPGLHQQH [V22Q]
Output line: 1.56

Input line: Field request: protein stability index | item: FTPPTSLTRAGMSYYNSPGLHVQL [H24L]
Output line: 1.63

Input line: Field request: protein stability index | item: FTPPTSLTRAGMDYYNSPGLHVQH [S13D]
Output line: 1.43

Input line: Field request: protein stability index | item: FTPPTSLTRAGMSYYNSPGLHWQH [V22W]
Output line: 1.22

Input line: Field request: protein stability index | item: FAPPTSLTRAGMSYYNSPGLHVQH [T2A]
Output line: 1.84

Input line: Field request: protein stability index | item: FTPPTALTRAGMSYYNSPGLHVQH [S6A]
Output line: 1.51

Input line: Field request: protein stability index | item: FQPPTSLTRAGMSYYNSPGLHVQH [T2Q]
Output line: 1.91

Input line: Field request: protein stability index | item: FTPPTSLTYAGMSYYNSPGLHVQH [R9Y]
Output line: 3.32

Input line: Field request: protein stability index | item: FTPPTSLTRAGMSAYNSPGLHVQH [Y14A]
Output line: 2.09

Input line: Field request: protein stability index | item: FTPPTSLTRQGMSYYNSPGLHVQH [A10Q]
Output line: 2

Input line: Field request: protein stability index | item: FTPPTSLTRAGMSYYNSPGLHVQN [H24N]
Output line: 1.15

Input line: Field request: protein stability index | item: FTPPTSLTRAGMVYYNSPGLHVQH [S13V]
Output line: 1.97

Input line: Field request: protein stability index | item: FPPPTSLTRAGMSYYNSPGLHVQH [T2P]
Output line: 2.26

Input line: Field request: protein stability index | item: FTPPTSLDRAGMSYYNSPGLHVQH [T8D]
Output line: 1.82

Input line: Field request: protein stability index | item: FTPETSLTRAGMSYYNSPGLHVQH [P4E]
Output line: 1.99

Input line: Field request: protein stability index | item: FTGPTSLTRAGMSYYNSPGLHVQH [P3G]
Output line: 2.07

Input line: Field request: protein stability index | item: FTPPTSLTRAGMSLYNSPGLHVQH [Y14L]
Output line: 1.44

Input line: Field request: protein stability index | item: FTPPTSLTRAGTSYYNSPGLHVQH [M12T]
Output line: 2.16

Input line: Field request: protein stability index | item: FTPPTSLTRAGMSYYNSPGLHVFH [Q23F]
Output line: 1.92

Input line: Field request: protein stability index | item: FTPPTELTRAGMSYYNSPGLHVQH [S6E]
Output line: 1.91

Input line: Field request: protein stability index | item: FTPPTSLTRAGMSYYNSPGLHVQD [H24D]
Output line: 1.82

Input line: Field request: protein stability index | item: FTPPTSLTRAGMSYYCSPGLHVQH [N16C]
Output line: 2.06

Input line: Field request: protein stability index | item: FTPPTSLTRAGMSYYNMPGLHVQH [S17M]
Output line: 1.32

Input line: Field request: protein stability index | item: FTPPTSLTRAGMSYYNSPGLHVDH [Q23D]
Output line: 1.69

Input line: Field request: protein stability index | item: FTPPTSLPRAGMSYYNSPGLHVQH [T8P]
Output line: 2.46

Input line: Field request: protein stability index | item: FTPPTSLTRAGMSPYNSPGLHVQH [Y14P]
Output line: 1.88

Input line: Field request: protein stability index | item: FTPPTSLTRAGMSYYNIPGLHVQH [S17I]
Output line: 1.7

Input line: Field request: protein stability index | item: FTPPTSLTRAGMSYYNSEGLHVQH [P18E]
Output line: 2.52

Input line: Field request: protein stability index | item: FTPPTSLTRAGMSYYNSPGLHKQH [V22K]
Output line: 2.25

Input line: Field request: protein stability index | item: FTPPTSLTRAGMSYYNSPGLLVQH [H21L]
Output line: 1.81

Input line: Field request: protein stability index | item: FTPPTSLTRAGMSYYNSPGLHVQY [H24Y]
Output line: 1.19

Input line: Field request: protein stability index | item: FTMPTSLTRAGMSYYNSPGLHVQH [P3M]
Output line: 1.87

Input line: Field request: protein stability index | item: VTPPTSLTRAGMSYYNSPGLHVQH [F1V]
Output line: 2.41

Input line: Field request: protein stability index | item: FTPHTSLTRAGMSYYNSPGLHVQH [P4H]
Output line: 2.19

Input line: Field request: protein stability index | item: FTPPTSRTRAGMSYYNSPGLHVQH [L7R]
Output line: 2.04

Input line: Field request: protein stability index | item: FTPPTSLTRAQMSYYNSPGLHVQH [G11Q]
Output line: 1.98

Input line: Field request: protein stability index | item: FTPPTSLTRAGMSYYNSPGLHNQH [V22N]
Output line: 1.98

Input line: Field request: protein stability index | item: FTPNTSLTRAGMSYYNSPGLHVQH [P4N]
Output line: 3.07
